# Assayed system: STAT3-SH2 domain (Homo sapiens, UniProt P40763)
# Sequence (P40763 whole entry, the tested form may be a part): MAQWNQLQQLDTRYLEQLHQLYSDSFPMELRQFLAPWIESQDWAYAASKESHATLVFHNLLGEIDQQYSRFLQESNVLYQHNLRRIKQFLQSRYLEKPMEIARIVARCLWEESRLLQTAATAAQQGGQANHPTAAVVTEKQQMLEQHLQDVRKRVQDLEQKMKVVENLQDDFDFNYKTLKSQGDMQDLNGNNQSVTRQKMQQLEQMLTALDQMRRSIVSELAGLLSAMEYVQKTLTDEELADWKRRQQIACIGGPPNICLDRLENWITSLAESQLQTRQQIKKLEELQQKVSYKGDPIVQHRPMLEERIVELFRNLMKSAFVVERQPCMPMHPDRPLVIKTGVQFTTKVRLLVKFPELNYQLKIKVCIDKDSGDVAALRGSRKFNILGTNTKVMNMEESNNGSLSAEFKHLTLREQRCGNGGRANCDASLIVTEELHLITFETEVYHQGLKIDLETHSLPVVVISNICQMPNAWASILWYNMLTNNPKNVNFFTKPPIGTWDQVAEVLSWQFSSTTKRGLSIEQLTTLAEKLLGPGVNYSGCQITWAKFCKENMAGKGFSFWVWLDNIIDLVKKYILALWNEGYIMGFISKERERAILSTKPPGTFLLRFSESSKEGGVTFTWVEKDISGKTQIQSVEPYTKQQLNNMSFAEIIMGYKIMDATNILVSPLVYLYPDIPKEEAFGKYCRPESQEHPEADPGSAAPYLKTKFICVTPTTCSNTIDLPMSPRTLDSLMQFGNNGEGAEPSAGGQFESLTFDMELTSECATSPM
# Assay: STAT AlphaScreen-based assay (STAT3)
# Format: binding
# Assay context: read-out: STAT3 % inhibition ± SD at 30 μM; AlphaScreen assay, 30 μM
Measured metric: inhibition at 30 µM (%)

compound="CS(=O)(=O)SCCNC(=O)/C=C/c1ccc(O)c(O)c1 [Compound 22]" assayed_system="STAT3-SH2 domain (Homo sapiens, UniProt P40763)" display_unit=% observed_result=99.8
compound="C=CCSSCCO [Compound 4, 2-(Allyldisulfanyl)ethanol]" assayed_system="STAT3-SH2 domain (Homo sapiens, UniProt P40763)" display_unit=% observed_result=55.7
compound="COc1cc(/C=C/C(=O)OCCCCSS(C)(=O)=O)ccc1O [Compound 15]" assayed_system="STAT3-SH2 domain (Homo sapiens, UniProt P40763)" display_unit=% observed_result=100
compound="CS(=O)(=O)SCCOC(=O)C=Cc1ccccc1 [Compound 25, 2-(Methylsulfonylthio)ethyl cinnamate]" assayed_system="STAT3-SH2 domain (Homo sapiens, UniProt P40763)" display_unit=% observed_result=100
compound="C=CCSSCCC(=O)NC1c2cc(C(C)C)c(O)c(O)c2C23CCCC(C)(C)C2C1OC3=O (stereo not drawn) [Compound 32]" assayed_system="STAT3-SH2 domain (Homo sapiens, UniProt P40763)" display_unit=% observed_result=99.5
compound="CC(C)c1cc2c(c(O)c1O)C13CCCC(C)(C)C1C(OC3=O)C2NC(=O)CCCCSS(C)(=O)=O (stereo not drawn) [Compound 31]" assayed_system="STAT3-SH2 domain (Homo sapiens, UniProt P40763)" display_unit=% observed_result=100

A = CC(C)c1cc2c(c(O)c1O)C13CCCC(C)(C)C1C(OC3=O)C2N (stereo not drawn) [Compound 30, rosmaricine]
B = COC(=O)/C=C/c1ccc(O)c(OC)c1 [Compound 13]
Kindly identify which of A and B has the larger recorded inhibition at 30 µM value. Indicate which entry you chose by stating its label. A

----------
# Assayed system: STAT3-SH2 domain (Homo sapiens, UniProt P40763)
# Assay: STAT AlphaScreen-based assay (STAT3)
# Format: binding
# Assay context: AlphaScreen assay; read-out: STAT3 IC50 ±SD
pIC50: −log10 of the molar value.
Measured metric: pIC50

What pIC50 appears in the records for this compound with STAT3-SH2 domain (Homo sapiens, UniProt P40763)? CS(=O)(=O)SCCO [Compound 1, S-2-hydroxyethyl methanesulfonothioate] < 4.52

Same again, this time with COc1ccc(/C=C/C(=O)OCCSS(C)(=O)=O)cc1OC 6.52

Same again, this time with C=CCSSCCC(=O)O < 4.52

Same again, this time with CC(C)c1cc2c(c(O)c1O)C13CCCC(C)(C)C1C(OC3=O)C2NC(=O)CCCCSS(C)(=O)=O (centres unmarked) 6.70

----------
# Assayed system: SH2-domain of STAT1 (Homo sapiens)
# Sequence (P42224 1-750): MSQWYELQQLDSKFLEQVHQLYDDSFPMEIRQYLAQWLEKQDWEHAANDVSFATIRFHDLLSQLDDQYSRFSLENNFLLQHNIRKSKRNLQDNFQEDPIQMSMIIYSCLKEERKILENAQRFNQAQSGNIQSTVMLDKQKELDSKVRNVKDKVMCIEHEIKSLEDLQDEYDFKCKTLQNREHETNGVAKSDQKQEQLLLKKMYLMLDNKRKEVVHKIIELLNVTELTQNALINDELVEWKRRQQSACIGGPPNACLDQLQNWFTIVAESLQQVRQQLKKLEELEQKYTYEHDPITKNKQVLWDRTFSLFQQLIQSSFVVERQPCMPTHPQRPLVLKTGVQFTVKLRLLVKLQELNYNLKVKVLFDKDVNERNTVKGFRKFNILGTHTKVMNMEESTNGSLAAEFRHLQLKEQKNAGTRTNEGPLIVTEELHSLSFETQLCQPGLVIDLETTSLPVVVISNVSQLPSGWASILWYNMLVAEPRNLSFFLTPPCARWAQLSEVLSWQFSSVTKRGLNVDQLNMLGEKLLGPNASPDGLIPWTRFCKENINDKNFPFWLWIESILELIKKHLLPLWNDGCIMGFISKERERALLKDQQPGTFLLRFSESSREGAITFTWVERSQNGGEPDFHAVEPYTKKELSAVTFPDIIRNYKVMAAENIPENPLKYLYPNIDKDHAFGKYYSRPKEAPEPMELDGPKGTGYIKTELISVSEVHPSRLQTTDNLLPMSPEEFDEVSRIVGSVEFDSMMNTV
pIC50: −log10 of the molar value.
Catalogue of pIC50 values

compound="CC(C)c1cc2c(c(O)c1O)C13CCCC(C)(C)C1C(OC3=O)C2NC(=O)c1ccc(-c2cssc2=S)cc1 (stereo not drawn)" measured_metric=pIC50 observed_result=4.71
compound=C=CCSSCCO measured_metric=pIC50 observed_result="< 4.52"
compound=COc1cc(/C=C/C(=O)Oc2ccc(-c3cc(=S)ss3)cc2)ccc1O measured_metric=pIC50 observed_result="< 4.52"
compound=COc1ccc(/C=C/C(=O)OCCSS(C)(=O)=O)cc1OC measured_metric=pIC50 observed_result=4.68
compound=CS(=O)(=O)SCCN measured_metric=pIC50 observed_result="< 5.52"

# lookup: pIC50 of CC(C)c1cc2c(c(O)c1O)C13CCCC(C)(C)C1C(OC3=O)C2NC(=O)CCCCSS(C)(=O)=O (stereo not drawn) 5.55

Same again, this time with C=CCSSCCC(=O)NC1c2cc(C(C)C)c(O)c(O)c2C23CCCC(C)(C)C2C1OC3=O (stereo not drawn) < 4.52

Same again, this time with CS(=O)(=O)SCCNC(=O)/C=C/c1ccc(O)c(O)c1 < 4.52

Same again, this time with C=CCSSCCC(=O)OC [Compound 10, Methyl 3-(allyldisulfanyl)propanoate] < 4.52

----------
# Assayed system: STAT3-SH2 domain (Homo sapiens)
# Assay: STAT AlphaScreen-based assay (STAT3)
# Format: binding
# Assay context: read-out: STAT3 % inhibition ± SD at 30 μM; AlphaScreen assay, 30 μM
Measured metric: inhibition at 30 µM (%)

Consider the worked cases shown below.
compound=CS(=O)(=O)SCCCCC(=O)O observed_result=72.5
compound="CS(=O)(=O)SCCO [Compound 1, S-2-hydroxyethyl methanesulfonothioate]" observed_result=11.6
compound=O=C(/C=C/c1ccc(O)c(O)c1)Oc1ccc(-c2cc(=S)ss2)cc1 observed_result=66.7
compound=COC(=O)CCCCSS(C)(=O)=O observed_result=99.6
compound=COCCOCOc1ccc(/C=C/C(=O)OCCSS(C)(=O)=O)cc1OCOCCOC observed_result=100
compound=COc1cc(/C=C/C(=O)Oc2ccc(-c3cc(=S)ss3)cc2)ccc1O observed_result=51.3
compound=COC(=O)/C=C/c1ccc(O)c(O)c1 observed_result=12.8
compound=COc1ccc(/C=C/C(=O)OCCSS(C)(=O)=O)cc1OC observed_result=99.7
compound=C=CCSSCCOC(=O)/C=C/c1ccc(O)c(OC)c1 observed_result=67.9
compound=CS(=O)(=O)SCCOC(=O)/C=C/c1ccc(Cl)c(Cl)c1 observed_result=100

I = O=C(O)c1ccc(-c2cssc2=S)cc1
II = COc1cc(/C=C/C(=O)O)ccc1O [Compound 12, ferulic acid, reference compound]
Kindly identify which of I and II has the larger recorded inhibition at 30 µM value. Indicate which entry you chose by stating its label. II
(II: 0.2%, I: -1.2%)

These entries and their values trace back to paper PMC6009881.
